- Target under test: OCT2 (Homo sapiens, UniProt O15244)
- Sequence (O15244 1-555): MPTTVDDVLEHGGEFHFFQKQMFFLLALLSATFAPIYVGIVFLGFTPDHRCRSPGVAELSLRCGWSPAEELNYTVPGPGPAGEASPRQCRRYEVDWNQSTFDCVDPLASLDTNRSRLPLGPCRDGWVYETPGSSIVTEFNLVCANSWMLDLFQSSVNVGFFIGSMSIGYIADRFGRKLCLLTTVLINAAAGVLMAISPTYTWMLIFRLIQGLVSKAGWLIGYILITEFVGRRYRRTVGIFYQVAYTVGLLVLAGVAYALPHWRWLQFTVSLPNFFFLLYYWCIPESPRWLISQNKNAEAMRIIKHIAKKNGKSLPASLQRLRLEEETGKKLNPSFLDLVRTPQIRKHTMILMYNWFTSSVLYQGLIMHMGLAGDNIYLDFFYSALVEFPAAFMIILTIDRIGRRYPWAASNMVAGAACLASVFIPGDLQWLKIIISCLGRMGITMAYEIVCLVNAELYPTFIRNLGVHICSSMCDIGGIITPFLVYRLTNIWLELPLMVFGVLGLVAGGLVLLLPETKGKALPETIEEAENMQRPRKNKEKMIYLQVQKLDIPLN
- Method: Inhibition of model substrate uptake in OCT2-overexpressing HEK293 cells
- Measurement context: OCT2; 20 μM inhibitor, 2 μM (S,S)-ethambutol, 5 min
Metric: (S,S)-Ethambutol inhibition [%] (%)
Use % as the unit, but write only the number.

Solved cases below.
Compound	Metric	Result value
C#CCN[C@@H]1CCc2ccccc21 [(R)-Rasagiline]	(S,S)-Ethambutol inhibition [%]	51.3
NC[C@@H](O)c1ccc(O)c(O)c1 [(S)-Norepinephrine]	(S,S)-Ethambutol inhibition [%]	5.1

Turning to the following compound.
Item CCN1CCC[C@@H]1CNC(=O)c1cc(S(=O)(=O)CC)c(N)cc1OC [(R)-Amisulpride] has what recorded (S,S)-Ethambutol inhibition [%]?
-5.7

Just for reference, paper PMC10698726 is where these values come from.
